tested on: HCT-116; assay: Antiproliferative activity against human HCT116 cells assessed as inhibition of cell viability after 72 hrs by MTT assay; assay type: functional, cell-based; settings: HCT-116, 72 h
Recorded pIC50 values for a group of molecules are listed next.
In simple prose, pIC50 is minus the logarithm base ten of a concentration in moles per litre.

Recorded pIC50, per entry:
COc1cc(Nc2n[nH]c3c2Cc2cc(OC)ccc2-3)cc(OC)c1 | 8.13
COc1ccc2c(c1)Cc1c(Nc3ccccc3OC)n[nH]c1-2 | 7.06

Proceeding to the next molecule to report its pIC50.
INPUT: Could you please provide reported pIC50 for COc1ccc2c(c1)Cc1c-2n[nH]c1Nc1ccccc1 ? Thanks!
OUTPUT: 7.58

* * *

test system: HCT-116; assay: Antiproliferative activity against human HCT116 cells assessed as inhibition of cell viability after 72 hrs by MTT assay; format: functional, cell-based; conditions: HCT-116, 72 h
We begin with a simple list: items and their reported pIC50.
FYI, pIC50 means -log10 of a concentration in mol per litre.

INPUT: Recall and state the measured pIC50 for CCOc1ccc2c(c1)Cc1c(Nc3ccccc3)n[nH]c1-2 .
OUTPUT: 7.25

INPUT: Using the record for COc1cccc(Nc2n[nH]c3c2Cc2cc(OC)ccc2-3)c1 , state its measured pIC50.
OUTPUT: 8.19

INPUT: For the compound COc1ccc2c(c1)Cc1c(Nc3ccc(OC)c(OC)c3)n[nH]c1-2 , report pIC50.
OUTPUT: 7.06

INPUT: Answer with the recorded pIC50 of COc1ccc2c(c1)Cc1c(Nc3cccc(O)c3)n[nH]c1-2 only.
OUTPUT: 7.96

* * *

log10 IC50 overview
system: HEK293; test: Antiproliferative activity against HEK293 cells assessed as inhibition of cell viability after 72 hrs by MTT assay; type: cell-based; conditions: Homo sapiens, HEK293, 72 h
For clarity, the numbers are log10 values of IC50 expressed in nM.

COc1cccc(Nc2n[nH]c3c2Cc2cc(OC)ccc2-3)c1 | 0.94
COc1cc(Nc2n[nH]c3c2Cc2cc(OC)ccc2-3)cc(OC)c1 | 0.66
COc1ccc2c(c1)Cc1c(Nc3cccc(OCC(C)C)c3)n[nH]c1-2 | 1.41

INPUT: Name the value of log10 IC50 reported for COC(=O)c1cccc(Nc2n[nH]c3c2Cc2cc(OC)ccc2-3)c1 when tested on HEK293.
OUTPUT: 0.34

INPUT: Report value only: log10 IC50, HEK293, COc1ccc2c(c1)Cc1c-2n[nH]c1Nc1ccccc1
OUTPUT: 1.73

INPUT: Please report log10 IC50 with HEK293 for item CCOc1ccc2c(c1)Cc1c(Nc3ccccc3)n[nH]c1-2 .
OUTPUT: 1.75

* * *

test system: HCT-116; experiment: Antiproliferative activity against human HCT116 cells assessed as inhibition of cell viability after 72 hrs by MTT assay; type: functional, cell-based; conditions: HCT-116, 72 h
pIC50: −log10 of the molar value.
Measurement name: pIC50

COc1ccc2c(c1)Cc1c(Nc3cccc(C(=O)O)c3)n[nH]c1-2 | < 7.00
COc1cccc(Nc2n[nH]c3c2Cc2ccccc2-3)c1 | < 7.00

INPUT: Kindly indicate its recorded pIC50. Item: COc1ccc2c(c1)Cc1c(Nc3ccccc3O)n[nH]c1-2
OUTPUT: < 7.00
